Data provenance: PubChem BioAssay AID720706

Entries and their RFP signal change
- MEASUREMENT DESCRIPTION: GFP drop in mixed WT/humanized-ribosome E. coli culture – GFP/RFP fluorescence, OD600, single point, bacterial rRNA inhibitor project, primary screen (AID 720706)
- PROTOCOL CONDITIONS: E. coli WT GFP vs humanized-ribosome RFP mutants, 24 h; measured here: RFP humanized mutant strains, DMSO median 0, no signal -100, concentration not given here
Screen size: about 350,000 compounds; about 5,500 (1.6%) were called active. The sample as a whole holds a higher share of actives than the screen did.

MOLECULE: C[C@@H]1CN([C@@H](C)CO)C(=O)Cc2cc(NC(=O)Nc3ccc(C(F)(F)F)cc3)ccc2O[C@H]1CN(C)Cc1ccc(C(=O)O)cc1
RFP signal change / %: -9.85
//
MOLECULE: C[C@@H]1CCCCO[C@H](CN(C)C(=O)NC2CCCCC2)[C@@H](C)CN([C@H](C)CO)C(=O)c2cc(NC(=O)CCC(F)(F)F)ccc2O1
RFP signal change / %: -2.49
//
MOLECULE: COc1ccc2c3c(n(C)c2c1)[C@H](CO)N(C(=O)Cc1ccccc1)CC31CCN(C)CC1
RFP signal change / %: -1.31
//
MOLECULE: C[C@@H]1CN([C@@H](C)CO)S(=O)(=O)c2ccc(C#C[C@@H](C)O)cc2O[C@@H]1CN(C)C(=O)Cc1ccccn1
RFP signal change / %: -0.13
//
MOLECULE: C[C@@H]1CN([C@H](C)CO)C(=O)Cc2cc(NS(=O)(=O)c3cn(C)cn3)ccc2O[C@@H]1CN(C)C(=O)Nc1ccccc1
RFP signal change / %: -1.29
//
MOLECULE: Cc1noc(C)c1S(=O)(=O)Nc1ccc2c(c1)C(=O)N([C@@H](C)CO)C[C@@H](C)[C@@H](CN(C)C)O2
RFP signal change / %: -0.906
//
MOLECULE: C[C@H](O)C#Cc1cnc2c(c1)C(=O)N([C@@H](C)CO)C[C@@H](C)[C@@H](CN(C)C(=O)Cc1ccccn1)O2
RFP signal change / %: -0.505
//
MOLECULE: CCN(/N=C/c1ccc(N(C)C)cc1)c1nc2ccccc2[nH]1
RFP signal change / %: -2.86
//
MOLECULE: O=C(C[C@H]1CC[C@@H]2[C@H](COC[C@@H](O)CN2Cc2cccc(-c3ccncc3)c2)O1)N1CCOCC1
RFP signal change / %: -4.81
//
MOLECULE: C[C@@H]1CN(C)C(=O)c2cccc(N(C)C)c2O[C@H]1CN(C)S(C)(=O)=O
RFP signal change / %: -4.17
//
MOLECULE: O=C(N/N=C/c1ccco1)c1ccc(NC(=O)C2CC2)cc1
RFP signal change / %: 3.89
//
MOLECULE: C[C@@H]1CN([C@H](C)CO)C(=O)c2cc(-c3cccc(F)c3)cnc2O[C@H]1CN(C)C(=O)Nc1ccccc1F
RFP signal change / %: -1.42
//
MOLECULE: CC(C)(C)C1CCC(=NNC(=O)c2cc(-c3ccccc3)n[nH]2)CC1 (configuration not stated)
RFP signal change / %: -1.93
//
MOLECULE: O=C(C1CCC1)N1CC(=O)N2[C@@H](CO)[C@@H](c3ccc(C#Cc4cccc(F)c4)cc3)[C@@H]2C1
RFP signal change / %: -12.2
//
MOLECULE: CN(C)CCCNC(=O)C[C@H]1C=C[C@@H](NC(=O)Cc2cccnc2)[C@H](CO)O1
RFP signal change / %: -1.98
//
MOLECULE: Fc1cccc2ncnc(OCc3ccccc3)c12
RFP signal change / %: -2.44
//
MOLECULE: CC(C)C#Cc1ccc2c(c1)O[C@@H](CN(C)C(=O)CN(C)C)[C@@H](C)CN([C@H](C)CO)S2(=O)=O
RFP signal change / %: -1.07
//
MOLECULE: COc1cccc(-c2cn(CC[C@H]3CC[C@H](NC(=O)CN(C)C)[C@H](CO)O3)nn2)c1
RFP signal change / %: -0.651
//
MOLECULE: C[C@@H]1CN([C@H](C)CO)C(=O)c2cc(NC(=O)C3CCCCC3)ccc2O[C@@H](C)CCCCO[C@H]1CN(C)S(C)(=O)=O
RFP signal change / %: -2.76
//
MOLECULE: CC(CNC(=O)Cn1cnc2c(OCc3ccccc3)ncnc21)c1ccccc1 (configuration not stated)
RFP signal change / %: 2.69
//
MOLECULE: N#Cc1ccc(CSc2ncccn2)cc1
RFP signal change / %: -0.806
//
MOLECULE: CCCNC(=O)C[C@@H]1C[C@H]2c3cc(NC(=O)Nc4ccccc4F)ccc3O[C@H]2[C@H](CO)O1
RFP signal change / %: 1.51
//
MOLECULE: OC[C@@H]1CN(Cc2cccs2)C[C@H](n2cnc3c(NC4CCCC4)ncnc32)O1
RFP signal change / %: 4.82
//
MOLECULE: C[C@@H]1CN([C@@H](C)CO)C(=O)c2cc(N(C)C)ccc2O[C@@H](C)CCCCO[C@@H]1CN(C)C(=O)CCC(F)(F)F
RFP signal change / %: 1.42
//
MOLECULE: CCNC(=O)[C@@H]1[C@@H](CO)[C@@H]2Cn3c(ccc(-c4ccncc4)c3=O)[C@@H]2N1Cc1cc(F)ccc1F
RFP signal change / %: 1.07
//
MOLECULE: N#Cc1ccc(-c2ccc([C@H]3[C@H](CO)N4C(=O)CN(C(=O)Cc5ccccc5)C[C@@H]34)cc2)cc1
RFP signal change / %: -0.285
//
MOLECULE: COc1ccc2c3c(n(C)c2c1)[C@@H](CO)N(S(C)(=O)=O)CC31CCN(C(=O)C2CCC2)CC1
RFP signal change / %: -2.66
